Conditions: rat; liver microsomes; pH 7.4; 15.0 min; 1.0 µM
OBSERVED_PROPERTY: log10 half-life (log10 of the value in min)
Note: values are log10 of half-life expressed in min.

(Q) I would be grateful if you could share the reported log10 half-life for `O=[S+]([O-])(Nc1cnc2ccccc2c1)c1ccc(NCc2ccc(Cl)cc2O)cc1` .
(A) 1.26

(Q) I would be grateful if you could share the reported log10 half-life for `O=C(Nc1ccccc1F)c1nc(S(=O)(=O)Cc2ccccc2F)ncc1Cl` .
(A) 0.17

(Q) I would be grateful if you could share the reported log10 half-life for `CCc1oc2ccccc2c1C(=O)c1cc(Br)c(O)c(Br)c1` .
(A) 0.99

(Q) I would be grateful if you could share the reported log10 half-life for `O=C(Nc1ccc(Br)cc1)c1ccc(F)c(S(=O)(=O)NC2CCCCCC2)c1` .
(A) 0.56

(Q) I would be grateful if you could share the reported log10 half-life for `COc1ccc(Nc2cc3c(nc2OC)nc(CCc2ccccc2)n3C)cn1` .
(A) 1.29

(Q) I would be grateful if you could share the reported log10 half-life for `COc1cc2c(C(=O)N3CCN(c4cccc(C(F)(F)F)c4)CC3)cn(CC(C)C)c(=O)c2cc1OC` .
(A) 0.50

(Q) I would be grateful if you could share the reported log10 half-life for `COc1ccc(OC)c(-c2cc(C(=O)N3CCN(c4ncccn4)CC3)c3ccccc3n2)c1` .
(A) 0.90

(Q) I would be grateful if you could share the reported log10 half-life for `COc1ccc(S(=O)(=O)N2CCCCCC2)cc1NC(=O)Cc1n[nH]c(=O)c2ccccc12` .
(A) 0.46

(Q) I would be grateful if you could share the reported log10 half-life for `O=C(Nc1nc(-c2ccccc2)cs1)c1ccncc1NS(=O)(=O)c1c(F)cc(F)cc1F` .
(A) 0.76

(Q) I would be grateful if you could share the reported log10 half-life for `COc1ccc(OC)c(N2C(=O)C(Cl)=C(N3CCCCC3)C2=O)c1` .
(A) 0.18

(Q) I would be grateful if you could share the reported log10 half-life for CC(C(O)c1ccc(O)cc1)N1CCC(Cc2ccccc2)CC1 (stereo not given) .
(A) 0.41

(Q) I would be grateful if you could share the reported log10 half-life for `COc1ccc(CCN2CCC(Nc3nc4ccccc4n3Cc3ccc(F)cc3)CC2)cc1` .
(A) 0.62

(Q) I would be grateful if you could share the reported log10 half-life for `CC(=O)c1c(C)[nH]c(C(=O)Nc2cccc(S(=O)(=O)Nc3ccc(Br)cc3)c2)c1C` .
(A) 1.26

(Q) I would be grateful if you could share the reported log10 half-life for `CCOC(=O)C1CCN(C(=O)C2(NC(=O)Nc3ccc(F)cc3F)CCCCC2)CC1` .
(A) 0.43

(Q) I would be grateful if you could share the reported log10 half-life for `CCCN(CCC)CCc1cccc2c1CC(=O)N2` .
(A) 0.47

(Q) I would be grateful if you could share the reported log10 half-life for `Cc1ccc(S(=O)(=O)NC2CCCCC2)cc1` .
(A) 0.00

(Q) I would be grateful if you could share the reported log10 half-life for `Cc1ccc2c(c1)[nH]c1c(N3CCN(Cc4ccccc4)CC3)ncnc12` .
(A) 0.87

(Q) I would be grateful if you could share the reported log10 half-life for `Cc1ccnc(NC(=S)N2CCN(c3cccc(C(F)(F)F)n3)CC2)c1` .
(A) 1.18

(Q) I would be grateful if you could share the reported log10 half-life for `COc1ccc(-c2nc3ccccc3c(=O)n2Cc2ccccc2)cc1COc1ccc(NC(C)=O)cc1` .
(A) 0.50

(Q) I would be grateful if you could share the reported log10 half-life for `CNc1nc(-c2cccc3ccccc23)ccc1C#N` .
(A) 0.76

(Q) I would be grateful if you could share the reported log10 half-life for `Cc1noc(C)c1C(=O)N1CCC2(CCCN(Cc3ccccc3)C2)CC1` .
(A) 0.86

(Q) I would be grateful if you could share the reported log10 half-life for `Cc1cc2c(-c3cccc(O)c3)nc(-c3c(C)noc3C)cc2[nH]1` .
(A) 1.38

(Q) I would be grateful if you could share the reported log10 half-life for `Cc1ccc(S(=O)(=O)Nc2cccnc2C(=O)Nc2nc(-c3ccccc3)cs2)cc1` .
(A) 0.62

(Q) I would be grateful if you could share the reported log10 half-life for `FC(F)(F)c1ccccc1-c1nc(NCc2ccc(-c3cccnc3)cc2)c2ccccc2n1` .
(A) 0.96

(Q) I would be grateful if you could share the reported log10 half-life for `O=C(c1csnn1)N1CCC2(CCCN(C(c3ccccc3)c3ccccc3)C2)CC1` .
(A) 0.32

(Q) I would be grateful if you could share the reported log10 half-life for `C[S+](=O)([O-])N1CCC(Cn2ccc3c(N4CCOCC4)nc(-c4cccc5[nH]ccc45)cc32)CC1` .
(A) 1.20

(Q) I would be grateful if you could share the reported log10 half-life for `Cc1ccc(S(=O)(=O)Nc2cc(C(=O)Nc3nc(-c4ccccc4)cs3)ccc2Cl)cc1` .
(A) 1.18

(Q) I would be grateful if you could share the reported log10 half-life for `COc1ccc(OC)c(Nc2c3c(nc4ccccc24)CCC3)c1` .
(A) 0.18

Values were extracted from PubChem BioAssay AID1508591.
